System: A2058 (human metastatic melanoma)
Assay Explanation: MTS cell proliferation/viability assay
Assay type: cell-based
Condition Context: 72 h
Description: The human cancer cell line HCT116 (human colorectal adenocarcinoma), HeLa (human cervical adenocarcinoma), Jurkat (human leukemic T cell lymphoma), and MDA-MB-231 (human mammary gland adenocarcinoma, triple-negative) were cultured in RPMI 1640 medium (Biosera, Kansas City, MO, USA). […]
Reported Metric: IC50 (µM)

A = CC(=O)Oc1ccc(/C=C/C(=O)OCCCCCC[P+](c2ccccc2)(c2ccccc2)c2ccccc2)cc1OC(C)=O
B = CC(=O)Oc1ccc(/C=C/C(=O)OCCCCCCCCCC[P+](c2ccccc2)(c2ccccc2)c2ccccc2)cc1OC(C)=O
Data request: Lab note: record which item had the higher IC50, A or B . The response must carry the label of the picked entry.
Data returned: A

---

Test system: A2058 (human metastatic melanoma)
Assay Explanation: MTS cell proliferation/viability assay
Type: cell-based
Condition Context: 72 h
pIC50: −log10 of the molar value.
Reported Metric: pIC50

Compound Structure | pIC50
CC(=O)Oc1ccc(/C=C/C(=O)OCCCCCCCC[P+](c2ccccc2)(c2ccccc2)c2ccccc2)cc1OC(C)=O | 5.03
CC(=O)Oc1ccc(/C=C/C(=O)OCCCCCCCCCCCC[P+](c2ccccc2)(c2ccccc2)c2ccccc2)cc1OC(C)=O | 5.05
